# EXPERIMENTAL_DETAILS: PGC1a acetylation increase, cellular AlphaLISA – cell-based, cherry-picked samples, set 6, dose response (AID 720513);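 also: cells made to overexpress flag tagged PGC1a plus GCN5 acetyltransferase by viral infection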
# CONDITIONS_USED: U2OS PGC1a acetylation AlphaLISA, overnight, 0 = neutral, -100 = inhibitor control; series mostly up to 19.5 µM
Among all 2,100 compounds or so, about 480 (23%) were called active. Roughly 5% stayed inconclusive and do not appear here. A selection follows. Measured potencies and affinities stand elsewhere.
READOUT_LABEL: outcome

Check out these entries, answers already filled in.
| MOLECULE | READOUT_LABEL | ASSAY_VALUE |
| --- | --- | --- |
| O=C(Nc1nc(-c2ccccn2)cs1)c1ccccc1-n1cnnn1 | outcome | inactive |
| CO[C@H]1CN(C)C(=O)c2cc(NS(=O)(=O)c3cn(C)cn3)ccc2OC[C@@H](C)NC[C@H]1C | outcome | inactive |
| CNC[C@@H](Cc1ccccc1)NC[C@@H](CC1CCCCC1)NCCCc1ccccc1 | outcome | inactive |
| Cc1ccc(CN2CC(C(=O)N3CCN(S(=O)(=O)c4cccc(F)c4)CC3)CC2=O)cc1 (centres undefined) | outcome | inactive |
| COc1ccc(S(=O)(=O)N2CCC(C(=O)N3CCC(C(N)=O)CC3)CC2)cc1Cl | outcome | inactive |

Reported outcome of C[C@H](CO)N1C[C@H](C)[C@@H](CN(C)Cc2cccnc2)Oc2cc(C#CC3CCCCC3)ccc2S1(=O)=O : inactive

// outcome lookup, molecule = CCOc1ccccc1OCCn1nnc2ccccc21 , result: inactive

For OC(CN1c2ccccc2Sc2ccccc21)Cn1nnc2ccccc21 (centres undefined) the molecule record lists outcome as inactive

Record summary for CO[C@H]1CN(C)C(=O)c2ccc(NS(=O)(=O)c3ccccc3)cc2OC[C@H](C)N(C(=O)NC(C)C)C[C@@H]1C : reported outcome = inactive
